- test_details: Pharmacokinetics and oral bioavailability in the mouse
- Format: in vivo
- applied_conditions: male, Balb Nu/Nu, plasma, 10 mg/kg intravenous bolus, mean value, read-out: CL(IV bolus)
measure: clearance
Please append the unit to your numeric answer.

Please give clearance for each item listed below.
1. O=c1[nH]c(-c2cccc(O)c2)c(OCCCN2CCCCC2)c2ccccc12
2. COc1ccc(-c2[nH]c(=O)c3cc(F)ccc3c2OCCN)cc1.Cl
3. CNCCCOc1c(-c2ccccc2)[nH]c(=O)c2ccccc12.Cl
4. COc1ccc(-c2[nH]c(=O)c3ccccc3c2OCCN)cc1.Cl
5. Cl.NCCOc1c(-c2ccccc2)[nH]c(=O)c2cc(F)ccc12
6. Cl.NCCOc1c(-c2cccc(Cl)c2)[nH]c(=O)c2ccccc12
7. COc1cccc(-c2[nH]c(=O)c3ccccc3c2OCCN)c1.Cl

Reply:
1. 176 mL/min/kg
2. 42.2 mL/min/kg
3. 177 mL/min/kg
4. 41.1 mL/min/kg
5. 37.9 mL/min/kg
6. 59.9 mL/min/kg
7. 120 mL/min/kg
